Test: Pharmacokinetics in rat
Assay type: in vivo
Conditions: Sprague-Dawley, plasma, 2 mg/kg; SD Rat; 2 mpk iv; 67% S-enantiomer, 33% R-enantiomer; read-out: CLp
experimentalEndpoint: clearance
Could you kindly put the unit after your number?

Ask: Please give the measured clearance for this compound: O=C1CC[C@H](N2Cc3c(OCc4ccc(CN5CCOCC5)cc4)cccc3C2=O)C(=O)N1
Result: 37 mL/min/kg

###

Tested on: Revlimid-resistant NCI-H929 R1-10
Assay: Proliferation and viability by 7-AAD staining
Assay type: cell-based
Conditions: Homo sapiens, NCI-H929, 120 h, read-out: IC50, proliferation
experimentalEndpoint: IC50

Ask: Can you look up IC50 on Revlimid-resistant NCI-H929 R1-10 for Nc1cccc2c1C(=O)N(C1CCC(=O)NC1=O)C2=O (stereo not shown) [Pomalidomide, pomalidomide, reference compound] ?
Result: > 30 µM

###

Experiment: Pharmacokinetics in monkey
Assay type: in vivo
Conditions: plasma, 0.5 mg/kg, 0.5 mpk iv, >99.5% S-enantiomer, <0.5% R-enantiomer, read-out: CLp
experimentalEndpoint: clearance (mL/min/kg)
Express it in mL/min/kg; write the number only.

Ask: Give the measured clearance of O=C1CC[C@H](N2Cc3c(OCc4ccc(CN5CCOCC5)cc4)cccc3C2=O)C(=O)N1 .
Result: 8.4

###

Tested on: Revlimid-resistant NCI-H929 R3-10
Experiment: Proliferation and viability by 7-AAD staining
Type: cell-based
Details: Homo sapiens, NCI-H929, 120 h, read-out: IC50, proliferation
experimentalEndpoint: IC50
Your answer should be a number followed by the unit of measure.

Ask: Which IC50 reading was recorded for the compound Nc1cccc2c1C(=O)N(C1CCC(=O)NC1=O)C2=O (stereo not shown) [Pomalidomide, pomalidomide, reference compound] ?
Result: 6.3 µM

###

Test system: DoHH2 FL cells
Assay: 3 day 3H-thymidine incorporation assay
Type: cell-based
Conditions: Homo sapiens, DOHH-2, 72 h; 3 day; read-out: anti-proliferative IC50
experimentalEndpoint: IC50 (nM)
Output spec: scalar in nM, unitless text.

Ask: Which value of IC50 has been reported for O=C1CC[C@H](N2Cc3c(OCc4ccc(CN5CCOCC5)cc4)cccc3C2=O)C(=O)N1 [Compound I-S] in the records?
Result: 40
